# tested_target: MMP-2 (Homo sapiens, UniProt P08253)
# Construct: purchased Sino Biological 10082-HNAH
# Sequence (P08253 110-660): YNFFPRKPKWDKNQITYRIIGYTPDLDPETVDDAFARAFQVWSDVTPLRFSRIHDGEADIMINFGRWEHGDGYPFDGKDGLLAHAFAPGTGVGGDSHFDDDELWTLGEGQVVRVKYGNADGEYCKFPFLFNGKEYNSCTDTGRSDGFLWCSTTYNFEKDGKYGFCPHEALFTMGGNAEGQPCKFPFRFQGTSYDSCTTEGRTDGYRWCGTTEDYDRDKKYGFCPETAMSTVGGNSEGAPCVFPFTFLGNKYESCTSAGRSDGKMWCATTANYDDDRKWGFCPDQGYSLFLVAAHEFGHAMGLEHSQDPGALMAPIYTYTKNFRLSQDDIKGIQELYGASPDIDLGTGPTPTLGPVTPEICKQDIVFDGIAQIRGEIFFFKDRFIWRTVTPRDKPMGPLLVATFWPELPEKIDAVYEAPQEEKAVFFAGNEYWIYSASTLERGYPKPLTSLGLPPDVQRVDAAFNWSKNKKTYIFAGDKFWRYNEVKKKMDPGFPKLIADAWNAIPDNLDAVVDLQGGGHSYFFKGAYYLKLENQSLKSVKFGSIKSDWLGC
# assay_text: MMP-2 inhibition assay (fluorogenic peptide substrate)
# Type: biochemical
# applied_conditions: MMP-2; concentration 0.0156 µM
value_type: remaining activity (%)

Cc1cc(=O)[nH]c(-n2nc(C)c(CCC(=O)NCCCCCCCCNC(=O)CCC(=O)NCc3c[nH]nn3)c2C)n1 90.99
Cc1cc(=O)[nH]c(-n2nc(C)c(CCC(=O)NCc3c[nH]nn3)c2C)n1 96.66
Cc1cc(=O)[nH]c(-n2nc(C)c(CCC(=O)NCCOCCOCCNC(=O)c3cncc(O)c3)c2C)n1 88.17
Cc1cc(=O)[nH]c(-n2nc(C)c(CCC(=O)NCCNC(=O)CSCCNC(=O)c3cncc(O)c3)c2C)n1 100.00
